Where do the numbers come from? From the supplement of paper PMC12667976.

B1: library; numbered along this chain (parent)
chain: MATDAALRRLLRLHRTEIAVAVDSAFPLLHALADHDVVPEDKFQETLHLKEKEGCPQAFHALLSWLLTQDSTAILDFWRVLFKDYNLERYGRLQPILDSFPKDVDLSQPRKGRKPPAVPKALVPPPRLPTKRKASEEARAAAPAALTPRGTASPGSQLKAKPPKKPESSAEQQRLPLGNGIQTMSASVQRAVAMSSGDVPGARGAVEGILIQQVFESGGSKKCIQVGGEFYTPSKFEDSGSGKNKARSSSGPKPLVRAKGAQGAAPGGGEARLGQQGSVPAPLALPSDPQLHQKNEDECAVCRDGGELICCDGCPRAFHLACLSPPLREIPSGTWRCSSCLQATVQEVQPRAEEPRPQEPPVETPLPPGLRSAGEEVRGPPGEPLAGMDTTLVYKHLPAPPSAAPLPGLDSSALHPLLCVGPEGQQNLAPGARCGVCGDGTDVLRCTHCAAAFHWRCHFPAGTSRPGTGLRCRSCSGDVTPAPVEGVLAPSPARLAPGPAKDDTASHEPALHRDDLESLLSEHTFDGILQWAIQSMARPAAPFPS

# Variants of: B1
# test_description: AIRE transcriptional activation functional score (insulin promoter-GFP; nonsense median 0, synonymous median 1) (normalised score); higher = higher AIRE activity (more reporter activation)
# study_conditions: with insulin promoter-GFP reporter in HEK293
Assign criterion met whenever AIRE transcriptional activation functional score does not fall below 0.7; assign criterion not met whenever it does.

# check: AIRE transcriptional activation functional score of L47F is greater than or equal to 0.7
criterion not met

Reported AIRE transcriptional activation functional score at or above 0.7? S185K
criterion met

Is it the case that P254I has AIRE transcriptional activation functional score reaching or exceeding 0.7?
criterion met

State whether the measured AIRE transcriptional activation functional score reaches 0.7, counting equality as reaching it, for L323F
criterion met

Does the variant K221A have recorded AIRE transcriptional activation functional score that is 0.7 or more?
criterion not met

Can G155Y be said to have AIRE transcriptional activation functional score at or above 0.7?
criterion met

Decide: AIRE transcriptional activation functional score of E167V >= 0.7?
criterion met

# bool: AIRE transcriptional activation functional score of R149L >= 0.7
criterion met

---
Check if AIRE transcriptional activation functional score >= 0.7 (inclusive). Item: T72H
criterion met

Say whether L397C shows AIRE transcriptional activation functional score of 0.7 or more.
criterion met

Record E307K ; criterion: AIRE transcriptional activation functional score no lower than 0.7. Met?
criterion met

Can L93V be said to have AIRE transcriptional activation functional score at or above 0.7?
criterion not met

Hi team, for G219E , is the recorded AIRE transcriptional activation functional score at or above 0.7?
criterion not met

State whether the measured AIRE transcriptional activation functional score reaches 0.7, counting equality as reaching it, for L146R
criterion not met

For this variant, is measured AIRE transcriptional activation functional score 0.7 or higher? G477F
criterion met

Form field: AIRE transcriptional activation functional score at least 0.7? Entry: P368D
criterion met
